Quick list: absolute recovery per entry.
run description: absolute recovery over mixed-bed multilayer solid-phase extraction; higher = better recovery
measurement parameters: surface water; enrichment method: SPE
endpoint name: absolute recovery (%)

| compound | endpoint name | numeric readout |
| --- | --- | --- |
| CC(C)[NH2+]CC(O)COc1ccc(COCCOC(C)C)cc1 (centres undefined) | absolute recovery | 91.8 |
| CCC1OC(=O)CC(O)C(C)C(OC2OC(C)C(OC3CC(C)(O)C(O)C(C)O3)C([NH+](C)C)C2O)C(CC=O)CC(C)C(=O)C=CC(C)=CC1COC1OC(C)C(O)C(OC)C1OC (centres undefined) | absolute recovery | 56.4 |
| COc1ccc(CN(CC[NH+](C)C)c2ccccn2)cc1 | absolute recovery | 87 |
| COc1ccc2c3c1OC1C(O)CCC4C(C2)[NH+](C)CCC341 (centres undefined) [Dihydrocodeine] | absolute recovery | 107 |
| NC1=C(Cl)C(=O)c2ccccc2C1=O | absolute recovery | 96.8 |
| COC(=O)[N-]S(=O)(=O)c1ccc(N)cc1 | absolute recovery | 34.2 |
| CC(=O)N(C)c1ccccc1 | absolute recovery | 77.4 |
| CCCCCCCCCCCC[N+](C)(C)C | absolute recovery | 114 |
| NC(=O)N1c2ccccc2C(O)C(O)c2ccccc21 (centres undefined) [Carbamazepin-10-11-dihydro-10-11-dihydroxy] | absolute recovery | 97.5 |
| C[NH2+]CCC(c1ccccc1)c1ccccn1 (centres undefined) | absolute recovery | 65.4 |
| CCCC(C)(COC(N)=O)COC(=O)NC(C)C (centres undefined) | absolute recovery | 97.9 |
| NC(=O)N1c2ccccc2CC(=O)c2ccccc21 [Oxcarbazepin] | absolute recovery | 84.7 |
| CC(Oc1ccc(Oc2ccc(C(F)(F)F)cn2)cc1)C(=O)[O-] (centres undefined) | absolute recovery | 96.8 |
| CON=C(C1=NOCCO1)c1ccccc1Oc1ncnc(Oc2ccccc2Cl)c1F | absolute recovery | 80.2 |
| CCCc1nc2c(C)cc(-c3nc4ccccc4n3C)cc2n1Cc1ccc(-c2ccccc2C(=O)[O-])cc1 | absolute recovery | 82.5 |
| CC(C)N1C(=O)N(c2ccccc2)CSC1=NC(C)(C)C | absolute recovery | 86.2 |
| CC12CCC3=C4CCC(=O)C=C4CCC3C1CCC2(O)CC#N (centres undefined) | absolute recovery | 81.6 |
| COc1ccc2c(c1)c(CC(=O)OCC(=O)[O-])c(C)n2C(=O)c1ccc(Cl)cc1 | absolute recovery | 59.7 |
| CCCN(CCC)C(=O)SCc1ccccc1 | absolute recovery | 35.1 |
